Source: PubChem BioAssay (NCI)

Entries and their growth
System: OVCAR-4 ovarian
Assay: NCI-60 one-dose screen, 48 h (100 = growth as untreated, 0 = no growth, -100 = all killed)
Conditions: 10 µM unless noted
Description: Growth inhibition of the OVCAR-4 human tumor cell line is measured as a screen for anti-cancer activity. Cells are grown in 96 well plates and exposed to the test compound for 48 hours. Compounds are tested at a single concentration, which is 10^-5 M for most compounds. The reported endpoint is percent growth (GI% or GIPRCNT), where numbers from 0 - 100% represent growth inhibition, and numbers from -100% - 0 represent cell death. For example, a value of 40 represents 60% growth inhibition. […]
This is part of a sample that, as a whole, favours compounds with a hit. Of some 83,000 tested, about 20% had one in any assay. Active and inactive are the calls of the source. Rule for the calls: active = growth percent below 10; inactive = the rest.

COC(=O)[C@H](CCCCNC(=O)OCc1ccccc1)NC(=O)[C@@H](NC(=O)Nc1cc(C(F)(F)F)cc(C(F)(F)F)c1)C(C)C :: -68.8% [100 µM] (active)
COc1cc(/C(Cl)=C/C=C/C(=O)c2c(C)[n+]([O-])c3ccc(Cl)cc3[n+]2[O-])cc(OC)c1OC :: 34.1% (inactive)
COc1cc2c(cc1OC)C(CC1(O)CCCCC1)N(S(=O)(=O)c1ccc(C)cc1)CC2 (centres undefined) :: 25.4% [100 µM] (inactive)

Query string: Missing value: growth, OVCAR-4 ovarian, entry `COc1cc(/C=C2\CN(S(=O)(=O)c3ccc(C)cc3)C/C(=C\c3cc(CN4CCOCC4)c(O)c(OC)c3)C2=O)cc(CN2CCOCC2)c1O` . Fill in?
Result string: 24.8% (inactive)

###

test system: SF-539 CNS; assay: NCI-60 one-dose screen, 48 h; settings: 10 µM unless noted
Compounds without any hit were thinned out: in the full panel of roughly 83,000, 20% have a hit. Activity calls are given as the source filed them. How the source made its calls: active means growth percent below 10; inactive means the rest.
Respond only with the outcome that fits, drawn from active, inactive

Query string: Just curious, what result did `COC(=O)[C@H](Cc1cnc[nH]1)NC(=O)[C@@H](NC(=O)Nc1cc(C(F)(F)F)cc(C(F)(F)F)c1)C(C)C` get here?
Result string: active

Query string: Just curious, what result did `CC(=O)Nc1cc2c3c(cccc3c1)-c1ccccc1-2` get here?
Result string: inactive

Query string: Just curious, what result did `O=C1Nc2ccc(C(=O)O)c(O)c2C1=O` get here?
Result string: inactive

Query string: Just curious, what result did `CCOC(=O)CCN(c1c(Cl)ssc1=O)C(C)C` get here?
Result string: inactive

Query string: Just curious, what result did `CCCCCCCCN(CCO)CCCCCCCC` get here?
Result string: inactive

Query string: Just curious, what result did CCCCCCCCCCCCCCCCCC1=NC(C)(CO)CO1 (stereo unspecified) get here?
Result string: inactive

###

system: SF-539 CNS; assay: NCI-60 one-dose screen, 48 h (100 = growth as untreated, 0 = no growth, -100 = all killed); conditions: 10 µM unless noted
Compounds without any hit were thinned out: in the full panel of roughly 83,000, 20% have a hit. The source made the active and inactive calls. How the source made its calls: active means growth percent below 10; inactive means the rest.
test-readout: growth

Query string: // lookup growth for Clc1ccc2c(c1)C(Br)c1cc(Cl)cc(Cl)c1-2 (stereo not drawn)
Result string: 81.6% (inactive)

Query string: // lookup growth for `OCCN1CCN(CCCN2c3ccccc3Sc3ccc(C(F)(F)F)cc32)CC1`
Result string: 33.4% (inactive)

Query string: // lookup growth for `CCN(CC)c1ccc(C(=C2C=CC(=[N+](CC)Cc3cccc(S(=O)(=O)O)c3)C=C2)c2ccc(N(CC)Cc3cccc(S(=O)(=O)O)c3)cc2)cc1`
Result string: 62.1% (inactive)

Query string: // lookup growth for `CCOc1cc(/C=C/C(=O)C(C(=O)/C=C/c2ccc(OC(=O)CNc3nc4ccccc4[nH]3)c(OCC)c2)C(=O)CNc2nc3ccccc3[nH]2)ccc1OC(=O)CNc1nc2ccccc2[nH]1`
Result string: -33.4% (active)

###

system: EKVX NSCLC; assay: NCI-60 one-dose screen, 48 h; conditions: 10 µM unless noted
About 83,000 compounds went through this panel and 20% of them were active in at least one assay; those are over-represented in the sample as a whole. The source made the active and inactive calls. The calls were made as follows: active = growth percent below 10; inactive = the rest.
Respond only with the outcome that fits, drawn from 1 for active, 0 for inactive

Some entries whose results are on file:
CCSc1nc(-c2ccco2)n2nc(-c3ccco3)cc2n1 :: 0
N#Cc1ccccc1C#Cc1ccccc1C#Cc1ccc(OCCCCCCOc2ccc(C#Cc3ccccc3C#Cc3ccccc3C#N)cc2)cc1 :: 0
Oc1ccc(/C=N/Nc2nc3ccccc3s2)c(O)c1 :: 0
O=C(COc1cccc(/C=C2\Oc3ccc4ccccc4c3C2=O)c1)c1ccc(Cl)cc1 :: 0

Query string: Just curious, what result did CN[C@@H]1C(OC2[C@H](O[C@H]3[C@H](O)[C@@H](O)[C@H](N=C(N)N)[C@@H](O)[C@@H]3N=C(N)N)OC(C)[C@]2(O)CO)OC(CO)C(O)C1O (some centres undefined) get here?
Result string: 0

Query string: Just curious, what result did `O=C1NC(=O)/C(=C/c2ccc(Cl)cc2Cl)N1` get here?
Result string: 0

###

test system: NCI/ADR-RES ovarian; test: NCI-60 one-dose screen, 48 h; conditions: 10 µM unless noted
About 83,000 compounds went through this panel and 20% of them were active in at least one assay; those are over-represented in the sample as a whole. Activity calls are given as the source filed them. The calls were made as follows: active = growth percent below 10; inactive = the rest.
Respond only with the outcome that fits, drawn from active, inactive

Query string: Just curious, what result did `CC(=O)c1nn(-c2ccccc2)c(=Nc2ccccc2)cc1C` get here?
Result string: inactive

###

tested on: OVCAR-4 ovarian; experiment: NCI-60 one-dose screen, 48 h; details: 10 µM unless noted
The panel holds about 83,000 compounds, 20% with a hit somewhere; the sample as a whole holds those more often. The source made the active and inactive calls. Rule for the calls: active = growth percent below 10; inactive = the rest.
Respond only with the outcome that fits, drawn from TRUE (active), FALSE (inactive)

Some entries whose results are on file:
CC(C)N(Cc1ccccc1)c1c(Cl)ssc1=O :: FALSE
Cc1n(Cc2ccc3ccccc3c2)cc[n+]1Cc1ccc2ccccc2c1 :: TRUE
CSc1nc(N)c2c(n1)N(C)C=NS2(=O)=O :: FALSE
CC(=O)c1ccccc1NC(=O)C(C)(c1ccccc1)c1ccccc1 :: FALSE
Cc1ccc(NC(=O)c2sc3nc4c(cc3c2N)C(=O)CCC4)cc1 :: FALSE

Query string: Just curious, what result did `O=C1CNc2cc(Cl)ccc2N1` get here?
Result string: FALSE

Query string: Just curious, what result did `O=C1C=CC(=O)N1c1ccccn1` get here?
Result string: FALSE

Query string: Just curious, what result did `Cn1ccnc1C(=O)/C=C/c1ccc(C(=O)Nc2nc3ccccc3[nH]2)cc1` get here?
Result string: FALSE

Query string: Just curious, what result did `c1ccc(N2c3nc4ccccc4cc3Sc3cc4ccccc4nc32)nc1` get here?
Result string: FALSE

Query string: Just curious, what result did `[N-]=[N+]=NCc1ncc(-c2ccc(C(F)(F)F)cc2)c(NC2CCCCCC2)n1` get here?
Result string: FALSE

Query string: Just curious, what result did `N#Cc1c(NC(=O)c2ccco2)[n+]([O-])c2ccccc2[n+]1[O-]` get here?
Result string: FALSE

Query string: Just curious, what result did `Cc1cc(Cl)ccc1Nc1nc(C(F)(F)F)ccc1C(=O)N/N=C/c1ccc(Cl)cc1` get here?
Result string: TRUE

Query string: Just curious, what result did `Cc1ncc(C(=O)Nc2ccc(CN3CCN(C)CC3)c(C(F)(F)F)c2)cc1C#Cc1cncc2ncccc12` get here?
Result string: FALSE

Query string: Just curious, what result did `CCN(CC)c1ccc(/C=C/C(=O)c2cccc(NS(C)(=O)=O)c2)cc1` get here?
Result string: FALSE

Query string: Just curious, what result did `OCCN1CCN(CCCN2c3ccccc3Sc3ccc(C(F)(F)F)cc32)CC1` get here?
Result string: FALSE

Query string: Just curious, what result did `Cc1cc(C)c(C(=O)c2cccs2)c(C)c1` get here?
Result string: FALSE

###

system: SF-295 CNS; assay: NCI-60 one-dose screen, 48 h (100 = growth as untreated, 0 = no growth, -100 = all killed); settings: 10 µM unless noted
Compounds without any hit were thinned out: in the full panel of roughly 83,000, 20% have a hit.
Entries and their growth
The answer is to be given in %; state only the numeric part.

Reference set (5 entries):
COc1cc(/C=C\C(C)=N\Nc2ccccc2)ccc1O :: 85.5
O=C(COc1ccc(/C=C2\Cc3ccccc3C2=O)cc1)c1ccc(Cl)cc1 :: 121
C=C1CC[C@@H]2[C@](C)(COC(C)=O)[C@H](OC(C)=O)CC[C@@]2(C)[C@@H]1CC(NCc1ccccc1)C1=CCOC1=O (stereo not given in full) :: 63.9
O=C1/C(=C/c2ccccc2Cl)CCc2ccccc21 :: 65.3
COc1ccc2c(c1)[n+](=O)c(C(=O)/C=C/c1cc(OC)c(OC)c(OC)c1)c(C)n2[O-] :: 87.5

Query string: Missing value: growth, SF-295 CNS, entry `COc1cc(-c2nc3sc4c(c3c(=O)[nH]2)CCCCCC4)cc(OC)c1OC` . Fill in?
Result string: 13.7

Query string: Missing value: growth, SF-295 CNS, entry `Cc1csc(C#Cc2cncc(O)c2)n1` . Fill in?
Result string: 121

Query string: Missing value: growth, SF-295 CNS, entry `C=C(CN1CCc2c([nH]c3ccccc23)C1)c1ccc(C(=O)Nc2ccon2)cc1` . Fill in?
Result string: 114

Query string: Missing value: growth, SF-295 CNS, entry `COC(=O)C1(NC(=O)CNC(=O)OCc2ccccc2)CCCC1` . Fill in?
Result string: 117

Query string: Missing value: growth, SF-295 CNS, entry CCOC(=O)C1=CCC(n2cc(C)c(=O)[nH]c2=O)O1 (stereo not given) . Fill in?
Result string: 116
